System: human CETP mRNA
ASSAY PROTOCOL: Dose-dependent antisense inhibition of human CETP in SW872 liposarcoma cells (Example 3)
Type: cell-based
RUN PARAMETERS: 300 nM, Lipofectin, ~16 hours (Example 3)
Strand notation (5' to 3'): a small letter for the sugar, then the base; units joined by * are phosphorothioate-linked, units joined directly phosphodiester-linked; [ ] holds rarer units or linkages, { } end groups; capitals alone tell only the bases. e = 2'-O-(2-methoxyethyl) (MOE); [5mC] = 5-methylcytosine; d = 2'-deoxy (DNA)
# percent inhibition of CETP values compiled below
Numeric only. Scale: %

Record excerpt, results attached:
ISIS 17302: GCTTGCCTTCTGCTACAAGC, 6-8-6 MOE; first disclosed in U.S. Ser. No. 11/031,827 (antisense; sugars from the 5' end e6 d8 e6, backbone and methylation of C not given here) | 45
ISIS 349513: 5-10-5 MOE gapmer TCCAGCTGTGAGCCTGGTGC (eT*e[5mC]*e[5mC]*eA*eG*d[5mC]*dT*dG*dT*dG*dA*dG*d[5mC]*d[5mC]*dT*eG*eG*eT*eG*e[5mC]) | 91

Moving on to another substance below.
Lab note: measured percent inhibition of CETP of ISIS 349517: 5-10-5 MOE gapmer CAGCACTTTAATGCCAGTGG (sugars from the 5' end e5 d10 e5, backbone and methylation of C not given here) was 93

----------
Test system: human CETP mRNA
ASSAY PROTOCOL: Antisense inhibition of human CETP mRNA in SW872 liposarcoma cells (Example 1)
Format: cell-based
RUN PARAMETERS: 150 nM antisense oligonucleotide, lipofectin, ~24 hours, relative to untreated control cells
Strand notation (5' to 3'): a small letter for the sugar, then the base; units joined by * are phosphorothioate-linked, units joined directly phosphodiester-linked; [ ] holds rarer units or linkages, { } end groups; capitals alone tell only the bases. e = 2'-O-(2-methoxyethyl) (MOE); [5mC] = 5-methylcytosine; d = 2'-deoxy (DNA)
# if value of % inhibition reaches 50%, tag Criterion met; if it stays below, tag Criterion not met

Study these solved cases before continuing.
ISIS 349458: 5-10-5 MOE gapmer GGTAGCTGGCTCGCTGGAAG (eG*eG*eT*eA*eG*d[5mC]*dT*dG*dG*d[5mC]*dT*d[5mC]*dG*d[5mC]*dT*eG*eG*eA*eA*eG) | Criterion not met
ISIS 349510: 5-10-5 MOE gapmer TCTAGCTCAAGCTCTGGAGG (eT*e[5mC]*eT*eA*eG*d[5mC]*dT*d[5mC]*dA*dA*dG*d[5mC]*dT*d[5mC]*dT*eG*eG*eA*eG*eG) | Criterion met
ISIS 349470: 5-10-5 MOE gapmer GAGGTCAATGGCAGAGTCGA (antisense eG*eA*eG*eG*eT*d[5mC]*dA*dA*dT*dG*dG*d[5mC]*dA*dG*dA*eG*eT*e[5mC]*eG*eA) | Criterion met

Is reported % inhibition greater than or equal to 50% here: ISIS 349475: 5-10-5 MOE gapmer GCTTGATCCACCCAGGCTCT (eG*e[5mC]*eT*eT*eG*dA*dT*d[5mC]*d[5mC]*dA*d[5mC]*d[5mC]*d[5mC]*dA*dG*eG*e[5mC]*eT*e[5mC]*eT) Criterion not met

Is reported % inhibition greater than or equal to 50% here: ISIS 349457: 5-10-5 MOE gapmer TCTGGATCACCTTGGCAGTC (eT*e[5mC]*eT*eG*eG*dA*dT*d[5mC]*dA*d[5mC]*d[5mC]*dT*dT*dG*dG*e[5mC]*eA*eG*eT*e[5mC]) Criterion met
